# systemTested: hFZD7 CRD-Fc (human, UniProt O75084 33-185)
# assayNotes: spot phage ELISA
readoutName: S/N
// return a plain number; no unit text

// solved cases for S/N follow
VPSDDLEAWCDVMY [SEQ ID NO 76]
49.8
AAADDLAFWCHVMY [SEQ ID NO 80]
48.2
APSDDLEFWCHVMY [SEQ ID NO 44]
58.3
AASDDLAAWCHVMY [SEQ ID NO 49]
55.7
VPSDDLAFWCHVMY [SEQ ID NO 65]
53.2
AASDDLESWCHVMY [SEQ ID NO 50]
55.6

Entry under test: VPSDDLEFWCAVMY [SEQ ID NO 95] . Its S/N was 2.1

Entry under test: LAADDLESWCHVMY [SEQ ID NO 60] . Its S/N was 53.5

Entry under test: APADDLAFWCHVVY [SEQ ID NO 74] . Its S/N was 50.6

Entry under test: AAADDLEVWCHVMY [SEQ ID NO 54] . Its S/N was 54.4

Entry under test: VPADDLAFWCHVMY [SEQ ID NO 67] . Its S/N was 52.7

Entry under test: VPSDDLASWCHVMY [SEQ ID NO 68] . Its S/N was 52.2

Entry under test: VAADDLAAWCHVMY [SEQ ID NO 39] . Its S/N was 60.7
